The measurements presented in this section are drawn from patent US11957759B1.

Molecular target: B-RAF G466V (Homo sapiens, UniProt P15056, G466V)
Construct: expressed in transfected cells; host or cells: T-Rex 293 cells (Invitrogen #R71007)
Sequence (P15056 whole entry G466V): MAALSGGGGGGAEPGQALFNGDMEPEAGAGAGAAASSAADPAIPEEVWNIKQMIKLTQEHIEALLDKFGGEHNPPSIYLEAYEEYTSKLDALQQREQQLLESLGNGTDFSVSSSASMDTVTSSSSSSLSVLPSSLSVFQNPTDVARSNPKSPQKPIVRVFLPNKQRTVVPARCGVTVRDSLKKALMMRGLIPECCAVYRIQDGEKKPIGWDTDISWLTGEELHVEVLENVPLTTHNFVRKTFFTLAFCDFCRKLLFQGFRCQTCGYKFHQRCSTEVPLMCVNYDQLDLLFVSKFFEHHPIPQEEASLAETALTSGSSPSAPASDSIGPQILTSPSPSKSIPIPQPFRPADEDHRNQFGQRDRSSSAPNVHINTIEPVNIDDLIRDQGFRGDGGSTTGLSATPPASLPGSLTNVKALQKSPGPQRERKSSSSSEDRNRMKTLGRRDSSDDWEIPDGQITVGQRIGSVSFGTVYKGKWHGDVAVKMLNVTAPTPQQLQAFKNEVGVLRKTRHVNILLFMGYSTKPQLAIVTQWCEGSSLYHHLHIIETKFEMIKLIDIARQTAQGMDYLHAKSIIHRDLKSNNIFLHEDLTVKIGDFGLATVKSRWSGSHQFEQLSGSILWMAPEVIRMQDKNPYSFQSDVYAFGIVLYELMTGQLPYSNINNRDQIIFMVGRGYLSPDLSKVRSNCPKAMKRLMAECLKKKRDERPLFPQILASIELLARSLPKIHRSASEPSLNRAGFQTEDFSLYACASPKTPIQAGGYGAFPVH
Experiment: Target protein degradation, assay D: T-Rex 293 cells, HA-BRAF_G466V, 384 well format
Assay type: cell-based
Details: Assay D, T-Rex 293 HA-BRAF_G466V cells, 24 hours, Examples 83-269
endpoint: DC50

Answered examples (2):
INSERT INTO measurements (molecule, endpoint, endpoint_result) VALUES
  ('N#Cc1c(NS(=O)(=O)N2CC[C@@H](F)C2)ccc(F)c1Oc1ccc2ncn(-c3ccc(N4CC5(CCN(CC6CCN(c7ccc8c(c7)CN([C@@H]7CCC(=O)NC7=O)C8=O)CC6)CC5)C4)cc3)c(=O)c2c1', 'DC50', '1 to 10 nM'),
  ('N#Cc1c(NS(=O)(=O)N2CC[C@@H](F)C2)ccc(F)c1Oc1ccc2ncn(-c3ccc(N4CCN(CCCOc5ccc6c(c5)C(=O)N(C5CCC(=O)NC5=O)C6=O)CC4)nc3)c(=O)c2c1 (stereo partly shown)', 'DC50', '≤ 1 nM');

Please fill in: DC50 reported for N#Cc1c(NS(=O)(=O)N2CC[C@@H](F)C2)ccc(F)c1Oc1ccc2ncn(-c3cnc(N4CCN(CCN5CCN(c6ccc7c(c6)CN(C6CCC(=O)NC6=O)C7=O)CC5)CC4)nc3)c(=O)c2c1 (stereo partly shown) = 1 to 10 nM

Please fill in: DC50 reported for N#Cc1c(NS(=O)(=O)N2CC[C@@H](F)C2)ccc(F)c1Oc1ccc2ncn(-c3cccc(C4CCN(CC5CCN(c6ccc7c(c6)CN([C@H]6CCC(=O)NC6=O)C7=O)CC5)C4)c3)c(=O)c2c1 (stereo partly shown) [Example 211] = 1 to 10 nM

Please fill in: DC50 reported for `N#Cc1c(NS(=O)(=O)N2CC[C@@H](F)C2)ccc(F)c1Oc1ccc2ncn(-c3ccc(N4CCC(CN5CC6(CCC(c7ccc8c(c7)CN([C@@H]7CCC(=O)NC7=O)C8=O)CC6)C5)CC4)cc3)c(=O)c2c1` = 10 to 30 nM

Please fill in: DC50 reported for CN(c1ccc(-n2cnc3ccc(Oc4c(F)ccc(NS(=O)(=O)N5CC[C@@H](F)C5)c4C#N)cc3c2=O)cc1)C1CCC(N2CCN(c3ccc4c(c3)CN([C@H]3CCC(=O)NC3=O)C4=O)CC2)CC1 (stereo partly shown) = 10 to 30 nM

Please fill in: DC50 reported for `N#Cc1c(NS(=O)(=O)N2CC[C@@H](F)C2)ccc(F)c1Oc1ccc2ncn(-c3ccc(N4CCC5(CC4)CC(OC4CCN(c6ccc7c(c6)CN([C@@H]6CCC(=O)NC6=O)C7=O)CC4)C5)cc3)c(=O)c2c1` = 1 to 10 nM

Please fill in: DC50 reported for N#Cc1c(NS(=O)(=O)N2CC[C@@H](F)C2)ccc(F)c1Oc1ccc2ncn(-c3ccn(C4CC5(C4)CN(CC4CCN(c6ccc7c(c6)CN(C6CCC(=O)NC6=O)C7=O)CC4)C5)n3)c(=O)c2c1 (stereo partly shown) = 1 to 10 nM
